Notes on pKi obtained with Kappa-type opioid receptor (Homo sapiens, UniProt P41145).
Sequence (P41145 whole entry): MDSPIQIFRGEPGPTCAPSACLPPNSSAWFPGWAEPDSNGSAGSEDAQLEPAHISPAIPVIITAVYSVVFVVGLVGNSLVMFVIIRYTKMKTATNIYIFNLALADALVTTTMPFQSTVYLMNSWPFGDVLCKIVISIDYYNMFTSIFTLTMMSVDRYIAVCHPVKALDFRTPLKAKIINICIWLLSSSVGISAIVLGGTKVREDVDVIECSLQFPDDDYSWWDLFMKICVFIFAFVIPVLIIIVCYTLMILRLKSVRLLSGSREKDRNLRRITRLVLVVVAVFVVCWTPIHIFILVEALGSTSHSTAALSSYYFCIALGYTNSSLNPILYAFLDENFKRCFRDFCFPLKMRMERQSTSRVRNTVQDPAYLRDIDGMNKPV
Please keep in mind that pKi is minus log10 of the molar concentration; only the number is needed.

Query string: // map O=C1CC[C@@]23Cc4ccc(O)cc4[C@@]2(CCN(CC2CC2)C3)C1 to recorded pKi (system: Kappa-type opioid receptor (Homo sapiens, UniProt P41145))
Result string: 7.76

Query string: GET /values?readout=pKi&system=Kappa-type opioid receptor (Homo sapiens, UniProt P41145)&item= CN1CC[C@]23Cc4nc5ccccc5cc4C[C@]2(Cc2ccc(O)cc23)C1
Result string: 6.71

Query string: Test system Kappa-type opioid receptor (Homo sapiens, UniProt P41145); read-out pKi; what value for Oc1ccc2c(c1)[C@]13CCN(Cc4ccccc4)C[C@@]1(C2)Cc1cc2ccccc2nc1C3 ?
Result string: 6.23

Query string: Report pKi for Oc1ccc2c(c1)[C@]13CCN(CC4(O)CC4)C[C@@]1(C2)Cc1cc2ccccc2nc1C3 tested on Kappa-type opioid receptor (Homo sapiens, UniProt P41145).
Result string: 6.06

Query string: Item: Oc1ccc2c(c1)[C@]13CCN(CC4CC4)C[C@@]1(C2)Cc1cc2ccccc2nc1C3 Test system: Kappa-type opioid receptor (Homo sapiens, UniProt P41145) Read-out: pKi Value: ?
Result string: 7.07

---

Item-by-item account of Ratio Ki
# Species: Homo sapiens
# Test Details: Selectivity ratio Ki for kappa-opioid receptor (unknown origin) to Ki for delta-opioid receptor (unknown origin)
Answer with the value's number alone.

Take a look at these entries with their results.
[
  {
    "Mol": "CN1CC[C@]23Cc4nc5ccccc5cc4C[C@]2(Cc2ccc(O)cc23)C1",
    "Ratio Ki": 104
  },
  {
    "Mol": "Oc1ccc2c(c1)[C@]13CCN(CC4(O)CC4)C[C@@]1(C2)Cc1cc2ccccc2nc1C3",
    "Ratio Ki": 801
  },
  {
    "Mol": "Oc1ccc2c(c1)[C@]13CCN(CC4CC4)C[C@@]1(C2)Cc1cc2ccccc2nc1C3",
    "Ratio Ki": 89.9
  }
]

Query string: Ratio Ki for Oc1ccc2c(c1)[C@]13CCN(Cc4ccccc4)C[C@@]1(C2)Cc1cc2ccccc2nc1C3 ?
Result string: 18.8

---

# Assay System: UniProt P41145
# Test Details: Agonist activity at kappa-opioid receptor (unknown origin) by [35S]GTPgammaS binding assay
Reported Property: pEC50
Please report pEC50 as the negative decimal logarithm of the molar concentration, giving only the number.

Query string: For the compound Oc1ccc2c(c1)[C@]13CCN(CC4CC4)C[C@@]1(C2)Cc1cc2ccccc2nc1C3 , what pEC50 is on record?
Result string: 6.08

---

# Assay System: Mu-type opioid receptor (Homo sapiens)
pKi: −log10 of the molar value.
Parameter threshold = 7. Response is True when pKi meets or exceeds it, else False.

Before answering, review these 2 worked examples.
[
  {
    "Mol": "Oc1ccc2c(c1)[C@]13CCN(CC4(O)CC4)C[C@@]1(C2)Cc1cc2ccccc2nc1C3",
    "Category": "False"
  },
  {
    "Mol": "O=C1CC[C@@]23Cc4ccc(O)cc4[C@@]2(CCN(CC2CC2)C3)C1",
    "Category": "True"
  }
]

Query string: Hi team, for CN1CC[C@]23Cc4nc5ccccc5cc4C[C@]2(Cc2ccc(O)cc23)C1 , is the recorded pKi at or above 7?
Result string: True

---

# Assay System: Mu-type opioid receptor (Homo sapiens, UniProt P35372)
# Sequence (P35372 whole entry): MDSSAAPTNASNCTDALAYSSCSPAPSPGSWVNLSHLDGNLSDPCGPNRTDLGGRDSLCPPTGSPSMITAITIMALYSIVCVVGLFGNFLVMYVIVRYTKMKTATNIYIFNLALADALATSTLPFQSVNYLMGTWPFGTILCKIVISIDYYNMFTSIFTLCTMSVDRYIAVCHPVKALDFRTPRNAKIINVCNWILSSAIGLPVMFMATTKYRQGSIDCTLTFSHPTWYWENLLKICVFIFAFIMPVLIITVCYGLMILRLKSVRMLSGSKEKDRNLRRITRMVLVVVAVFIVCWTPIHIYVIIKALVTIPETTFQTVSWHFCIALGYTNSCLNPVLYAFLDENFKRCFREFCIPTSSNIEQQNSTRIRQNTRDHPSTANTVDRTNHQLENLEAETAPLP
# Test Details: Agonist activity at mu-opioid receptor (unknown origin) by [35S]GTPgammaS binding assay
Reported Property: EC50 (nM)
Value expressed in nM; do not type the unit.

Query string: // EC50 lookup, key: Oc1ccc2c(c1)[C@]13CCN(CC4CC4)C[C@@]1(C2)Cc1cc2ccccc2nc1C3
Result string: 197

---

# Species on record: Homo sapiens
# Test Details: Selectivity ratio Ki for mu-opioid receptor (unknown origin) to Ki for delta-opioid receptor (unknown origin)
Reported Property: Ratio Ki

Reference set, count: 3
[
  {
    "Mol": "CN1CC[C@]23Cc4nc5ccccc5cc4C[C@]2(Cc2ccc(O)cc23)C1",
    "Reported Property": "Ratio Ki",
    "Observed Result": 1.63
  },
  {
    "Mol": "Oc1ccc2c(c1)[C@]13CCN(CC4(O)CC4)C[C@@]1(C2)Cc1cc2ccccc2nc1C3",
    "Reported Property": "Ratio Ki",
    "Observed Result": 378
  },
  {
    "Mol": "Oc1ccc2c(c1)[C@]13CCN(Cc4ccccc4)C[C@@]1(C2)Cc1cc2ccccc2nc1C3",
    "Reported Property": "Ratio Ki",
    "Observed Result": 2.42
  }
]

Read the next record carefully.
Query string: Given Oc1ccc2c(c1)[C@]13CCN(CC4CC4)C[C@@]1(C2)Cc1cc2ccccc2nc1C3 , state its recorded Ratio Ki.
Result string: 119

Values from ChEMBL document CHEMBL3286318
